Values from patent US12264155B2

Task for the reader: assign each of the following molecules its reported pIC50.
Target: ATR/ATRIP (Homo sapiens (Human), UniProt Q13535)
Sequence (Q13535 whole entry): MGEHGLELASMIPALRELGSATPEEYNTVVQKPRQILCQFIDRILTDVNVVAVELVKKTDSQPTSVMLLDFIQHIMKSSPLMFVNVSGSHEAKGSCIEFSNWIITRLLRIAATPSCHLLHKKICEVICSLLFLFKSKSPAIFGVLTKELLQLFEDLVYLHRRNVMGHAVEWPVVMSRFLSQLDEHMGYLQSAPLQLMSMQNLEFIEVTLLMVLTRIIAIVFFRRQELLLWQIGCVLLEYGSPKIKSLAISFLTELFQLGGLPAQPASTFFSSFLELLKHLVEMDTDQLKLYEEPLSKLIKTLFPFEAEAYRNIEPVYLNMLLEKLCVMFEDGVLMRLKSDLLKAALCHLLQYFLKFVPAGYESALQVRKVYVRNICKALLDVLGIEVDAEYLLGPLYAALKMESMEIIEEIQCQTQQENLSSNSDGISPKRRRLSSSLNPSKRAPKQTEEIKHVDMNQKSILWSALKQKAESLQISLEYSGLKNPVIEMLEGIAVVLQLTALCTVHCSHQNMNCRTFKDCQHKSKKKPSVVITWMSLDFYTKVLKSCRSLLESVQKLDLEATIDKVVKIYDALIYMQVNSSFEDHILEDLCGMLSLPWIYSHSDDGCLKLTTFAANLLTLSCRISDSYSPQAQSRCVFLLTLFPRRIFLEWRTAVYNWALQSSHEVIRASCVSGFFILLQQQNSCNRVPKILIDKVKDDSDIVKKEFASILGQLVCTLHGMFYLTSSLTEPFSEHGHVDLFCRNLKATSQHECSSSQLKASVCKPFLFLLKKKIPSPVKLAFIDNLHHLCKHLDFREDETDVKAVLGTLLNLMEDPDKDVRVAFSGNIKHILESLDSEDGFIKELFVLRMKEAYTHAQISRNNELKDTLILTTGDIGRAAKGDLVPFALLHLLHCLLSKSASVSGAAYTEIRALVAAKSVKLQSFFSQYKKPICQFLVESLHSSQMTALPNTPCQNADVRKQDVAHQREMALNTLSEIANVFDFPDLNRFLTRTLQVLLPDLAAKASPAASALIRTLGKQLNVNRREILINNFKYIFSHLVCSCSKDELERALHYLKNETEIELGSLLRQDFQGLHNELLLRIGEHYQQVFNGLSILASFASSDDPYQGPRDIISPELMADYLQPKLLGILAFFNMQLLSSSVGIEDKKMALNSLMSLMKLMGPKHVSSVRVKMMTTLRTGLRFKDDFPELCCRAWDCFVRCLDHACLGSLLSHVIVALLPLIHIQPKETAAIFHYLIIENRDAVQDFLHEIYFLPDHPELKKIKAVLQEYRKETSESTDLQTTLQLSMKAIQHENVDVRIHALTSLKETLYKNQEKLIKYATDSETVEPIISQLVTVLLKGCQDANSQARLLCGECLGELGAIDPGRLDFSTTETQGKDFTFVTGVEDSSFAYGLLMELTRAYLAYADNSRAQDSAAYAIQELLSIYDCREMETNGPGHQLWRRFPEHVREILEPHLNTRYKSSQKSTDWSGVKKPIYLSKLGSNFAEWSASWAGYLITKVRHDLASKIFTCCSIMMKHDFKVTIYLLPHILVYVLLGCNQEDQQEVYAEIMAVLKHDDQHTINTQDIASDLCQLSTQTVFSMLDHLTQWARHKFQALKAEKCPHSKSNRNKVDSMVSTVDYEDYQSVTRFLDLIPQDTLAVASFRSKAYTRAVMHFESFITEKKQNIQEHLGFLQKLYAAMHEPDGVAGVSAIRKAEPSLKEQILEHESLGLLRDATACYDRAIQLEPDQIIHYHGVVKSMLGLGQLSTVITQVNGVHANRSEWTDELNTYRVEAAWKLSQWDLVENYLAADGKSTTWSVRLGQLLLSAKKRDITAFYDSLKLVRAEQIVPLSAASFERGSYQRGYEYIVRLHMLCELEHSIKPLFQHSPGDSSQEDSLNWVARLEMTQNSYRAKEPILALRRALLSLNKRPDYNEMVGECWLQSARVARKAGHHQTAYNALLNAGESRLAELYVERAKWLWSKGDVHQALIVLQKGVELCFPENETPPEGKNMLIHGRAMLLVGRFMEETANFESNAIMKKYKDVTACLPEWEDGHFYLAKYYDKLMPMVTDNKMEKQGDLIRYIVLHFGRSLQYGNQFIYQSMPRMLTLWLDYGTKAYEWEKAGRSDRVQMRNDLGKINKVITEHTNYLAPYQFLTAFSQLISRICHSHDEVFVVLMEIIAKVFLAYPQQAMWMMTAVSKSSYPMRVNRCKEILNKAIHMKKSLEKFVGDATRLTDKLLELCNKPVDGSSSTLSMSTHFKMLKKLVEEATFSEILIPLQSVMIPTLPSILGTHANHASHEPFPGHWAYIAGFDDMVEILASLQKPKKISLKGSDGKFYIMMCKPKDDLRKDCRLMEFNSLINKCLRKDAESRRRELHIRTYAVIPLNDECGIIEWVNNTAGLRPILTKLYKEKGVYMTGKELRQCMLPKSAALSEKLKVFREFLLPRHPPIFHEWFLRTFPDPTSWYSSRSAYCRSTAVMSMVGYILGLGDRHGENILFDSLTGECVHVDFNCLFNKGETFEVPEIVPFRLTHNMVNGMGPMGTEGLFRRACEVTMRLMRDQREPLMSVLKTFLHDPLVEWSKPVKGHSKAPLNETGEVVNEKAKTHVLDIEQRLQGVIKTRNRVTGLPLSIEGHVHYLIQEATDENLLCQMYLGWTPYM
Sequence (Q8WXE1 whole entry partner): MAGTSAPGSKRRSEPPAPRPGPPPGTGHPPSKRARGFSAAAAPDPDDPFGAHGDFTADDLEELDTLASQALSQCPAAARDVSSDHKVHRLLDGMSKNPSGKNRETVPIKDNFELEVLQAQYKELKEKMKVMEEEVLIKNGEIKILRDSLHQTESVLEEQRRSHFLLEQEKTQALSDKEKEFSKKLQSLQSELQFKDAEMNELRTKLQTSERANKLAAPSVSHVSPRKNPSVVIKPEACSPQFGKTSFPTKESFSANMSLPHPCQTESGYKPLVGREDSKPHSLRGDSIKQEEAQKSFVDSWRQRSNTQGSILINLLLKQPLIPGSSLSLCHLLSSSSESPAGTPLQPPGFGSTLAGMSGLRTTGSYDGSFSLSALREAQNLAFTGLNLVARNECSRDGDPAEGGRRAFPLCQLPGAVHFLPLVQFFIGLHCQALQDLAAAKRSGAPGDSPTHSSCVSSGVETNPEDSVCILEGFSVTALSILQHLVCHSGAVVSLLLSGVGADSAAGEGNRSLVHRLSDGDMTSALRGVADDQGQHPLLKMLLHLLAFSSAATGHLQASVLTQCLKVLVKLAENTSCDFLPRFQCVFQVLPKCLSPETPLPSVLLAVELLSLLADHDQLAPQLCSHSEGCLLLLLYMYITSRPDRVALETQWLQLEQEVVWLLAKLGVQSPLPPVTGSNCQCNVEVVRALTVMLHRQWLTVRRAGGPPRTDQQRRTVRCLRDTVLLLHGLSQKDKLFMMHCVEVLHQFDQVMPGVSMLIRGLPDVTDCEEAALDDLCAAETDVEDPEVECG
Test: ATR/ATRIP enzymatic assay (AlphaScreen, phosphorylation of p53)
Settings: read-out: ATR IC50; recombinant ATR/ATRIP 0.63 nM, 25 nM GST-p53, 3 μM ATP, 1 hour room temperature
Answers are plain numbers, as −log10 of the molar value.

Kindly note the recorded pIC50 for C[C@@H]1COCCN1c1cc(C(C)(C)C#N)c2cnn(-c3ncc[nH]3)c2n1 , which is 6.78

Kindly note the recorded pIC50 for C[C@@H]1COCCN1c1cc(C2(C#N)CCSCC2)c2cnn(-c3cc[nH]n3)c2n1 , which is 8.10

Each molecule below has a reported value. Please supply its pIC50.
1. C[C@@H]1COCCN1c1cc(C2(C#N)CCNCC2)c2cnn(-c3cc[nH]n3)c2n1
2. C[C@@H]1COCCN1c1cc(C2(C#N)CCS(=O)(=O)CC2)c2cnn(-c3cc[nH]n3)c2n1

# output
[7.66, 7.44]

Kindly note the recorded pIC50 for C[C@@H]1COCCN1c1cc(C2(CN)CCCCC2)c2cnn(-c3cc[nH]n3)c2n1 , which is 7.62

----------
Target: ATR/ATRIP (Homo sapiens (Human))
Assay: ATR/ATRIP enzymatic assay (AlphaScreen, phosphorylation of p53)
Conditions: read-out: ATR IC50; recombinant ATR/ATRIP 0.63 nM, 25 nM GST-p53, 3 μM ATP, 1 hour room temperature
Task for the reader: assign each of the following molecules its reported pIC50.
Give bare numbers, as −log10 of the molar value.

# annotated cases, reported pIC50 shown
Kindly note the recorded pIC50 for C[C@@H]1COCCN1c1cc(C2(C#N)CCC2)c2cnn(-c3cc[nH]n3)c2n1 , which is 6.87

Kindly note the recorded pIC50 for COc1cc(N2CCOC[C@H]2C)nc2c1cnn2-c1cc[nH]n1 , which is 6.85

Kindly note the recorded pIC50 for C[C@@H]1COCCN1c1cc(-c2nncs2)c2cnn(-c3cc[nH]n3)c2n1 , which is 7.03

Kindly note the recorded pIC50 for COc1ccc(-c2cc(N3CCOC[C@H]3C)nc3c2ccn3-c2cc[nH]n2)cn1 , which is 5.82

Kindly note the recorded pIC50 for C[C@@H]1COCCN1c1cc(C(C)(C)O)c2cnn(-c3cc[nH]n3)c2n1 , which is 7.40

Each molecule below has a reported value. Please supply its pIC50.
1. C[C@@H]1COCCN1c1cc(N2CCCS2(=O)=O)c2cnn(-c3cc[nH]n3)c2n1
2. C[C@@H]1COCCN1c1cc(C2(C#N)CN(C(=O)OC(C)(C)C)C2)c2cnn(-c3cc[nH]n3)c2n1
3. C[C@@H]1COCCN1c1cc(C(=O)N2CCOCC2)c2ccn(-c3cc[nH]n3)c2n1
4. C[C@@H]1COCCN1c1cc(C2(C#N)CNC2)c2cnn(-c3cc[nH]n3)c2n1

# output
7.64
7.52
5.71
7.77

Each molecule below has a reported value. Please supply its pIC50.
1. C[C@@H]1COCCN1c1cc(-c2ccccc2[S+](C)[O-])c2ccn(-c3cc[nH]n3)c2n1 (some centres unmarked)
2. C[C@@H]1COCCN1c1cc(S(=O)(=O)C2CC2)c2cnn(-c3cc[nH]n3)c2n1
3. Cc1cn(-c2cc[nH]n2)c2nc(N3CCOC[C@H]3C)cc(C(C)(C)C#N)c12
4. C[C@@H]1COCCN1c1cc(C2(O)CCC3(CC2)CSC3)c2cnn(-c3cc[nH]n3)c2n1

# output
6.64
8.30
6.39
8.70
